test system: His-TRAF6_310-522 (TRAF6); assay: AlphaScreen PPI assay, TRAF6 binding to GST-LMP1/CD40/RANK proteins; design: species or system human; settings: source data; One site -- Specific binding with Hill slope; AlphaScreen signal
Field: Bmax (best-fit value). Provide a value for each of the molecules that follow.
One number for each entry.

Take a look at these entries with their results.
LMP1 Q381E (protein, left off: GST, end not stated, kept) LIWMYYHGQRHSDEHHHDDSLPHPQQATDDSGHESDSNSNEGRHHLLVSGAGDGPPLCSQNLGAPGGGPDNGPQDPDNTDDNGPQDPDNTDDNGPHDPLPQDPDNTDDNGPQDPDNTDDNGPHDPLPHSPSDSAGNDGGPPQLTEEVENKGGDQGPPLMTDGGGGHSHDSGHGGGDPHLPTLLLGSSGSGGDDDDPHGPVELSYYD = 1507585
CD40 E235Q (protein, left off: GST, end not stated, kept) KKVAKKPTNKAPHPKQEPQQINFPDDLPGSNTAAPVQETLHGCQPVTQEDGKESRISVQERQ = 1053663
CD40: recombinant GST-CD40_216-277 (protein, left off: GST, end not stated, kept) KKVAKKPTNKAPHPKQEPQEINFPDDLPGSNTAAPVQETLHGCQPVTQEDGKESRISVQERQ = 1455821

Enquiry: Can you look up the measured Bmax (best-fit value) of LMP1 Y384F (protein, left off: GST, end not stated, kept) LIWMYYHGQRHSDEHHHDDSLPHPQQATDDSGHESDSNSNEGRHHLLVSGAGDGPPLCSQNLGAPGGGPDNGPQDPDNTDDNGPQDPDNTDDNGPHDPLPQDPDNTDDNGPQDPDNTDDNGPHDPLPHSPSDSAGNDGGPPQLTEEVENKGGDQGPPLMTDGGGGHSHDSGHGGGDPHLPTLLLGSSGSGGDDDDPHGPVQLSFYD for me?
Return: 1186145

The measured values listed here are drawn from paper PMC10776578.
